molecular target: T1, RSV prefusion F (preF), subtype B (respiratory syncytial virus subtype B); experiment: BLI, IgG
T1 construct: also called Prefusion subtype B
Property label: pKd
Numbers only, as −log10 of the molar value.

ADI-14343 (antibody, V domains shown, full-length IgG; also called Ab 11) VH: QVQLVQSGAEVKKPGSSVKVSCKASGGTFSSYGVNWVRQAPGQGLEWMGRIIPMFGTSNYAQKFQGRVTITADGSTSTAYMELSSLRSEDTAVYYCARVGSPTTGAIMGVWGQGTTVTVSS VL: DIVLTQTPLSLPVTPGEPASISCRSSQSLLQSNGFNYLDWYLQKPGQSPKLLIYMGSNRASGVPDRFSGSGSGTDFTLIISRVEAEDVGVYYCMQAIESPLTFGGGTKVDIK ... 7.42
ADI-24847 (antibody, V domains shown, full-length IgG) VH: EVQLVESGGGLVKPGGSLRLSCAASGFTFSSYSMNWVRQAPGKGLEWVSSISSSSNYIYYADSVKGRFTISRDNAKNSLYLQMNSLRAEDTAVYYCARDRIAAYTFDYWGQGTLVTVSS VL: QSVVTQPPSVSGAPGQRVTISCTGSSSNIGAGYDVHWYQQLPGTAPKLLIYGNSNRPSGVPDRFSGSKSGTSASLAITGLQAEDEADYYCQSYDSSLPYVFGTGTKVTVL ... 7.40
ADI-24826 (antibody, V domains shown, full-length IgG; also called Ab 388) VH: EVQLVESGGGLVKPGGSLRLSCAASGFTFSSYSMNWVRQAPGKGLEWVSSISSSSSYIYYADSVKGRFTISRDNAKNSLYLQMNSLRAEDTAVYYCARDRGYGSGALDYWGQGTLVTVSS VL: QPVLTQPASVSGSPGQSITISCTGTSSDVGGYNYVSWYQQHPGKAPKLMIYDVSNRPSGVSNRFSGSKSGNTASLTISGLQAEDEADYYCSSYTSSSTVVFGGGTKLTVL ... 8.04
ADI-24842 (antibody, V domains shown, full-length IgG) VH: QVQLVQSGGGLVKPGGSLRLSCAASGFTFSSYSMNWVRQAPGKGLEWVSSISSSSSYIYYADSVKGRFTISRDNAKNSLYLQMNSLRAEDTAVYYCARVPPHDYGGYYFDYWGQGTLVTVSS VL: QSVVTQPPSVSGAPGQRVTISCTGSSSNIGAGYDVHWYQQLPGTAPKLLIYRNSNRPSGVPDRFSGSKSGTSASLAIIGLQAEDEADYYCQSYDSSLSVVFGGGTKLTVL ... 8.56
ADI-25462 (antibody, V domains shown, full-length IgG) VH: EVQLVESGGGLVKPGGSLRLSCAASGFTFSSYSMNWVRQAPGKGLEWVSSISSSSSYIYYADSVKGRFTISRHNAKNSLYLQMNSLRAEDTAVYYCARGSSSSWFCFDYWGQGTLVTVSS VL: SYVLTQPPSVSGAPGQRVTISCTGSSSNIGAGYDVHWYQQLPGTAPKLLIYGNSNRPSGVPDRFSGSKSGTSASLAITGLQAEDEADYYCQSYDSSLSYVFGTGTKLTVL ... 8.77
ADI-24828 (antibody, V domains shown, full-length IgG; also called Ab 390) VH: EVQLVESGGGLVKPGGSLRLACAASGFSFRSYRMNWVRQAPGKGLEWVSSISSSSSYIDYADSVKGRFTISRDNAKNTVYLQVNSLRAEDTAVYYCARDGRTIFGVVIDYWGQGTLVTVSS VL: QSVLTQPPSVSGAPGQRVTISCTGSSSNIGAGYDVHWYQQLPGTAPKLLIYGNNNRPSGVPDRFSGSKSGTSASLVITGLQAEDEADYYCQSYDSSLSVVFGGGTKLTVL ... 9.41
ADI-14354 (antibody, V domains shown, full-length IgG; also called Ab 22) VH: QVQLVQSGAEVKKPGSSAKVSCKASGGTFSSYTISWVRQAPGQGLEWMGRIIPFLGIANYAQKFQGRVTFTADKSTSTVYMDLSRLRSEDTALYYCAREPMYYGGDSYAFDVWGQGTTVTVSS VL: QSVLTQPASMSGSPGHSITISCTGTSSDVGAYNYVSWYQQHPGKAPKLMIYDVSNRPSGVSSRFSGSKSGNTASLTISGLQPEDEADYYCSSFTTSSTRVFGTGTKLTVL ... 7.60
ADI-24855 (antibody, V domains shown, full-length IgG) VH: EVQLVESGGGLVKPGGSLRLSCAASGFTFSSYSMNWVRQAPGKGLEWVSSISSSSSYIYYADSVKGRFTISRDNAKNSLYLQMNSLRAEDTAVYYCARRYCTNGVCYDAFDIWGQGTMVTVSS VL: QSVVTQPPSVSGAPGQRVTISCTGSSSNIGAGYDVHWYQQLPGTAPKLLIYGNSNRPSGVPDRFSGSKSGTSASLAITGLQAEDEADYYCQSYDSSLSYVFGTGTKVTVL ... 7.55

Need pKd for each of these binders.
1. ADI-14338 (antibody, V domains shown, full-length IgG; also called Ab 6) VH: EVQLVESGGGVVQPGRPLRLSCAASGFTFSTYDLYWVRQAPGKGLDWVAIISPDGNKKYYADSVKGRFTISRDNSKNTLFLHMNSLRAEDTAVYYCARDYGNYFGSGSYYRYFDLWGRGTLVTVSS VL: DIQLTQSPSSLSASVGDRVTITCRASQSISSHLNWYQQKPGKAPKLLIYASSSLQSGVPSRFSGSGSGTDFTLTISGLQPEDFATYYCQQSYSTPFTFGPGTKVEIK
2. ADI-19465 (antibody, V domains shown, full-length IgG; also called Ab 170) VH: EVQLVESGGGLVKPGGSLRLSCAASGFTFSSYSMNWVRQAPGKGLEWVSSISSSSSYIYYADSVKGRFTISRDNAKNSLYLQMNSLRAEDTAVYYCAREGSSSWYYFDYWGQGTLVTVSS VL: QSVVTQPPSVSGAPGQRVTISCTGSSSNIGAGYDVHWYQQLPGTAPKLLIYGNSNRPSGVPDRFSGSKSGTSASLAITGLQAEDEADYYCQSYDSSLSGPWVFGGGTKLTVL

[8.15, 7.71]
